Target: Endoribonuclease toxin MazF (Escherichia coli K-12)
Sequence (P0AE70 whole entry): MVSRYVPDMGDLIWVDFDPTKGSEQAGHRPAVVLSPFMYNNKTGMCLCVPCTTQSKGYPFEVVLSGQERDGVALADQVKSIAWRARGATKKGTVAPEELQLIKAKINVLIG
Test: activation of MazEF endoribonuclease cleavage – biochemical, fluorescence, single-stranded RNA substrate, uHTS hits, dose response (AID 588481)
Type: functional
The source made the active and inactive calls.
PROPERTY: EC50

Answered examples (3):
Cc1cccc(C)c1-n1nnnc1SCC(=O)c1c(N)n(C2CC2)c(=O)[nH]c1=O : > 99 µM (inactive)
CCOc1ccc(NC(=O)CNC(=O)c2nn(-c3ccc(OC)cc3)c(=O)c3ccccc23)cc1 : 48.2 µM (inactive)
Cn1c(=O)c2c(ncn2CC(=O)Nc2nc(-c3ccccc3Cl)cs2)n(C)c1=O : > 99 µM (inactive)

As a next step, examine the compound that follows.
The compound identified as Oc1[nH]c2ccccc2c1N=Nc1ccc(F)cc1 registered its EC50 at > 99 µM (inactive)

* * *

target: Heat shock factor protein 1 (Mus musculus); assay: decrease of HSF1-responsive luciferase luminescence – cell-based, NIH3T3, dose retest, confirmation (AID 2382); assay type: functional;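 also: NIH3T3 fibroblasts with HSF1-driven luciferase reporter stressed by proteasome inhibitor MG132; luminescence from HSF1-driven luciferase expression after 8 hours of MG132 stress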
Sequence (P38532 whole entry): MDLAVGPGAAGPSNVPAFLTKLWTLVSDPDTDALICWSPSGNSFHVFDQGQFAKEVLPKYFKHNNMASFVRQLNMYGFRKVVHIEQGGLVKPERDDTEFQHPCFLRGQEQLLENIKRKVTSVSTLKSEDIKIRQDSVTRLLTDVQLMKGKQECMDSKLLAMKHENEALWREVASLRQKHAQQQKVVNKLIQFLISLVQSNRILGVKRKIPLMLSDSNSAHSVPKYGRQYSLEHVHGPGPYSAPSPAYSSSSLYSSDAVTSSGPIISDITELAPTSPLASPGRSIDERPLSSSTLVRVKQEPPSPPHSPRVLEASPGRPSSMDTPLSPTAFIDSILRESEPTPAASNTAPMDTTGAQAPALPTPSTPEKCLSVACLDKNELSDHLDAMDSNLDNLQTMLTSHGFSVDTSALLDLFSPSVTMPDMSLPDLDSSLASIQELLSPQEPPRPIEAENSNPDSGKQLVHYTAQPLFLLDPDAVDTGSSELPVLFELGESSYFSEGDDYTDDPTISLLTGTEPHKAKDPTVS
Calls of active or inactive are those of the source.
PROPERTY: EC50

Answered examples (2):
Oc1ccc(Br)cc1/C=N/Nc1ccccn1 : 3.19 µM (active)
COc1ccc(OCc2cccc(C(=O)Nn3cc([N+](=O)[O-])cn3)c2)cc1 : 4.92 µM (active)

Query Cc1ccc(N(CC2=NCCN2)c2cccc(O)c2)cc1 on Heat shock factor protein 1 (Mus musculus); EC50 returned: > 195 µM (not active)

Query Cc1cccc(-n2ncc3c(N(C)C4CCCCC4)ncnc32)c1 on Heat shock factor protein 1 (Mus musculus); EC50 returned: < 0.16 µM (active)

Query C/C(=N\NC(=O)c1nnn(-c2nonc2N)c1C(C)C)c1ccncc1 on Heat shock factor protein 1 (Mus musculus); EC50 returned: > 195 µM (not active)

Query O=C(COC(=O)Cc1c(Cl)cccc1Cl)Nc1ccc(OC(F)(F)F)cc1 on Heat shock factor protein 1 (Mus musculus); EC50 returned: > 195 µM (not active)

Query CCN(CC)C(=S)SCC(=O)Nc1nc(=O)c2ccccc2s1 on Heat shock factor protein 1 (Mus musculus); EC50 returned: > 195 µM (not active)

* * *

Item-by-item account of EC50
tested on: Streptococcus; assay: GAS UMAA2166 growth inhibition – luminescence, BacTiterGlo, counter-screen for streptokinase expression inhibitor project, dose response (AID 1915); format: functional, organism-based;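 also: potency for reduction of bacterial viability or growth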
Active and inactive are the calls of the source.

The compound identified as Cn1c(=O)c(C(=O)NNC(=O)c2ccccc2Br)c(O)c2ccccc21 registered its EC50 at 18.7 µM (active)

The compound identified as COc1ccc(C(CNC(=O)c2cccc(S(=O)(=O)Nc3ccccc3Cl)c2)N2CCOCC2)cc1 (centres undefined) registered its EC50 at 104 µM (active)

The compound identified as COc1ccc(-c2nnc(NC(=O)c3ccc(S(=O)(=O)N4CCCc5ccccc54)cc3)o2)cc1 registered its EC50 at 0.855 µM (active)

* * *

Item-by-item account of Absolute IC50 (XBP1)
biological target: X-box-binding protein 1 (Homo sapiens, UniProt P17861); format: functional, Cricetulus griseus;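 also: confirmatory dose-response counter-screen serving a CHOP assay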
Sequence (P17861 whole entry): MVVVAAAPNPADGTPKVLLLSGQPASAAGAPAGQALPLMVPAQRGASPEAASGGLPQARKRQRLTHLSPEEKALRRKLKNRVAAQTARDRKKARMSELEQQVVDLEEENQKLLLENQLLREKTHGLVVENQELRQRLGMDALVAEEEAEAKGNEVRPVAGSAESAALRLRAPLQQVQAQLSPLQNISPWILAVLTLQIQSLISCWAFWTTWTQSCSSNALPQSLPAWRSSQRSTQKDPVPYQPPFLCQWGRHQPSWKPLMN
Dear colleague, please return just the value in µM, with no unit written.

Cc1cc(NC(=O)CSc2nc3cc4c(cc3c(=O)n2CCc2ccccc2)OCO4)no1 : 10

Query O=C(COC(=O)Cc1c(Cl)cccc1Cl)Nc1ccc(OC(F)(F)F)cc1 on X-box-binding protein 1 (Homo sapiens, UniProt P17861); Absolute IC50 (XBP1) returned: 10

Query CC(C)=CCc1c(O)c(CC=C(C)C)c2c(c1O)C(=O)CC(c1ccc(O)cc1)O2 (centres undefined) on X-box-binding protein 1 (Homo sapiens, UniProt P17861); Absolute IC50 (XBP1) returned: 10

* * *

assay: P. falciparum Dd2 growth inhibitors, dose response, SYBR Green, cherry-picked samples (AID 1159567); assay type: functional, cell-based
Activity calls are given as the source filed them.
Item-by-item account of AC50

Answered examples (5):
O=S(=O)(c1ccc(F)cc1)N1CCCCN2[C@H](CO)[C@H](c3ccc(-c4ccccc4F)cc3)[C@H]2C1 : 1.97 µM (active)
COc1ccc2c3c(n(C)c2c1)[C@H](CO)NCC31CCN(CC2CCCC2)CC1 : 0.738 µM (active)
COc1ccc(C#Cc2ccc([C@@H]3[C@@H](CO)N4CCCCN(C(=O)Nc5ccccc5F)C[C@@H]34)cc2)cc1 : 8.08 µM (active)
C[C@@H]1CN([C@@H](C)CO)S(=O)(=O)c2ccc(/C=C/c3ccccc3)cc2O[C@H]1CN(C)C(=O)c1ccc2c(c1)OCO2 : 2.43 µM (active)
C[C@H](CO)N1C[C@H](C)[C@@H](CN(C)Cc2ccccc2)Oc2ccc(NC(=O)Nc3ccc(F)cc3)cc2CC1=O : 4.02 µM (active)

The compound identified as C[C@H](CO)N1C[C@H](C)[C@H](CN(C)CC2CC2)Oc2ccc(NC(=O)Nc3ccccc3)cc2CC1=O registered its AC50 at 2.08 µM (active)

* * *

test: Trypanosoma cruzi growth suppression in host cells – NIH3T3 host cells, beta-gal luminescence, confirmation (AID 2044); format: functional, cell-based;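 also: intracellular parasites grown in NIH/3T3 mouse fibroblasts as host cells; luminescent beta-galactosidase reporter signal from transgenic T. cruzi replicating inside host cells; inhibitors lower the luminescence signal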
Calls of active or inactive are those of the source.
PROPERTY: EC50

Answered examples (4):
Cc1ccc(CN(C)CCc2ccccn2)cc1 : 309 nM (active)
O=C(CCc1nnc(CCCCc2ccccc2)o1)NCCc1cccnc1 : 2270 nM (active)
C=CCn1c(O)c(N=NC(S)=Nc2ccccc2F)c2cc(S(=O)(=O)N3CCOCC3)ccc21 : 495 nM (active)
Cc1cc(OCCCCn2ccnc2)cc(C)c1Cl : 145 nM (active)

As a next step, examine the molecule that follows.
The molecule identified as COc1cccc(N/C([S-])=C(/C(=O)c2cc(C)n(-c3ccccc3F)c2C)[n+]2ccc(N(C)C)cc2)c1 registered its EC50 at 645 nM (active)

* * *

Item-by-item account of IC50
Biological target: High affinity choline transporter 1 (Homo sapiens, UniProt Q9GZV3)
Sequence (Q9GZV3 whole entry): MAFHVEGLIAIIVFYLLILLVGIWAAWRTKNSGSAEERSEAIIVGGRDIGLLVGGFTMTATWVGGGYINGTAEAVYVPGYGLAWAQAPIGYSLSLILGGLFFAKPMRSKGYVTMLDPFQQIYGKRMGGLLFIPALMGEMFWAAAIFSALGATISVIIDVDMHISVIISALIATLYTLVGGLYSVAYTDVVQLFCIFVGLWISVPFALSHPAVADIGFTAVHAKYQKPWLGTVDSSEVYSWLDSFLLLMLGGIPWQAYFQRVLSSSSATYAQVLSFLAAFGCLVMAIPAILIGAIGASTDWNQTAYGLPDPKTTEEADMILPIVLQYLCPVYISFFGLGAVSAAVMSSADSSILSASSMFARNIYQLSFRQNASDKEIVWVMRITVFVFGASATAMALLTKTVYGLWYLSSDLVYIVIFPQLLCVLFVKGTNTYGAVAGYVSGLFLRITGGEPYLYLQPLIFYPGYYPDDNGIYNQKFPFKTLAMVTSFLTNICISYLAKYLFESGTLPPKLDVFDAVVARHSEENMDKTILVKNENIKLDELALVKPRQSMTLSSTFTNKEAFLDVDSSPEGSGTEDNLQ
Experiment: human choline transporter blockers, potency – cell-based, 5-point CRC, membrane potential dye, dose response (AID 504840)
Format: functional
Activity calls are given as the source filed them.

Answered examples (2):
O=C(Nc1cccnc1)c1ccc(COc2ccccc2Br)o1 : 3.28 µM (active)
Cc1cc(NS(=O)(=O)c2ccc(NC(=O)C(C)Oc3cccc(C)c3C)cc2)nc(C)n1 (centres undefined) : 10 µM (active)

The compound identified as CCOC(=O)C1CCCN(C(=O)c2csc(-c3ccc4c(c3)CCO4)n2)C1 (centres undefined) registered its IC50 at 13.2 µM (active)

The compound identified as CCn1c(=O)cc(OCC(=O)NC(C)c2ccc3c(c2)OCCO3)c2ccccc21 (centres undefined) registered its IC50 at 15.8 µM (active)

* * *

biological target: UniProt P03070; type: functional, Betapolyomavirus macacae
Sequence (P03070 whole entry): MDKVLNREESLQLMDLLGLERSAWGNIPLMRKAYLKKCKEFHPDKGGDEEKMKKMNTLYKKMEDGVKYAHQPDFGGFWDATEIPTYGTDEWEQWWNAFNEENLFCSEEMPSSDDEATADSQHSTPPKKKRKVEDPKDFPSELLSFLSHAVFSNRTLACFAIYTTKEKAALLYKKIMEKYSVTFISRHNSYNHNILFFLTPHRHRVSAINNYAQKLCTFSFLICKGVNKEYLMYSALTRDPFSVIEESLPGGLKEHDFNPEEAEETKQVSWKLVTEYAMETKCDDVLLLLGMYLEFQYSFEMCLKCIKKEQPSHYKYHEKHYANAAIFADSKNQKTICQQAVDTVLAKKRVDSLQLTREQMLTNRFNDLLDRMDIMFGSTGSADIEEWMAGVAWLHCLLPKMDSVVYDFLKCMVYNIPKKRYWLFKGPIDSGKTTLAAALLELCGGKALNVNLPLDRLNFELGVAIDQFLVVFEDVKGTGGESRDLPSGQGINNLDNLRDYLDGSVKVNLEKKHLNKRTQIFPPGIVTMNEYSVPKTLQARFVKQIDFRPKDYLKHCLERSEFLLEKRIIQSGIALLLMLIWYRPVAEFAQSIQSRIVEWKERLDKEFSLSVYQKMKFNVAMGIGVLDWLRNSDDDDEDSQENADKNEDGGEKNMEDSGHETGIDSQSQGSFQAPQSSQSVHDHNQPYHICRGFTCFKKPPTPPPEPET
Active and inactive are the calls of the source.
Item-by-item account of IC50

Cc1csc(N/N=C/c2ccc(O)c([N+](=O)[O-])c2)n1 : 22.1 µM (active)
CN(C)c1ccc(NC(=O)c2ccc3[nH]cnc3c2)cc1 : 6.99 µM (active)
CCCC[n+]1c2ccccc2cc2ccccc21 : 42.4 µM (active)

The compound identified as NNC(=O)c1cc(-c2ccccc2)sc1N registered its IC50 at 17.2 µM (active)

* * *

molecular target: Heat shock protein HSP 90-alpha (Homo sapiens); type: functional, organism-based
Activity calls are given as the source filed them.
Item-by-item account of AC50

Answered examples (5):
Oc1ccc(Br)cc1/C=N/Nc1ccccn1 : 1.32 µM (active)
C=C1C(=O)C23CCC4C(C)(C(=O)OC)CCCC4(C)C2CCC1(O)C3 (centres undefined) : 1.27 µM (active)
COc1ccc(Cl)cc1C(Nc1cccnc1)c1ccc2cccnc2c1O (centres undefined) : 2.2 µM (active)
Clc1ccc(COC(Cn2ccnc2)c2ccc(Cl)cc2Cl)cc1 (centres undefined) [ECONAZOLE NITRATE] : 0.267 µM (active)
Oc1ccc(/C=C/c2ccc3cccc(O)c3n2)cc1Br : 1.35 µM (active)

The compound identified as c1ccc(-c2cccc(-c3ccccn3)n2)nc1 [TERPYRIDINE] registered its AC50 at 1.35 µM (active)

The compound identified as CNc1ccc2oc(C[C@H]3O[C@@]4(CC[C@H]3C)O[C@H]([C@H](C)C(=O)c3ccc[nH]3)[C@H](C)C[C@H]4C)nc2c1C(=O)O [CALCIMYCIN] registered its AC50 at 1.07 µM (active)

The compound identified as COc1ccc(C(=O)O/N=C2\C(=O)N(C)c3ccccc32)cc1 registered its AC50 at 1.1 µM (active)

The compound identified as COc1cccc2c1C(=O)c1c(O)c3c(c(O)c1C2=O)CC(O)(C(C)=O)CC3OC1CC(N(C)C)C(O)C(C)O1 (centres undefined) registered its AC50 at 0.807 µM (active)

Hello, the source for this data is ChEMBL document CHEMBL1201862, in case you need it.
